For each entry below, report its CHLORIDE value.
species on record: Rattus norvegicus; test: DrugMatrix - Regimen: Daily Repeat; format: toxicity, organism-based, Sprague-Dawley; parameters: regimen Daily Repeat, gender Male, age 6-8 weeks; settings: in vivo, po, 0 mg/kg, 120 h, tissue Plasma, route oral GAVAGE, dose level Control, time 5 day, […]

{"Compound": "CO[C@H]1O[C@@H]2O[C@@]3(C)CC[C@H]4[C@H](C)CC[C@@H]([C@H]1C)[C@@]24OO3", "Test Value": "102.67 MEQ/L"}

Hey, quick one: what's CHLORIDE for each of these?
1. Cc1cccc(C)c1NC(=O)C(C)N (stereo not given) [TOCAINIDE]
2. Oc1ncnc2[nH]ncc12 [ALLOPURINOL]
3. CC#C[C@]1(O)CC[C@H]2[C@@H]3CCC4=CC(=O)CCC4=C3[C@@H](c3ccc(N(C)C)cc3)C[C@@]21C [MIFEPRISTONE]
4. COC(=O)Nc1nc2ccc(C(=O)c3ccccc3)cc2[nH]1 [MEBENDAZOLE]

Output line:
98.33 MEQ/L
104.33 MEQ/L
97 MEQ/L
100.33 MEQ/L
